A collection of molecules and their measured IC50
target of assay: Rho-associated protein kinase 2 (Homo sapiens)
Sequence (O75116 whole entry): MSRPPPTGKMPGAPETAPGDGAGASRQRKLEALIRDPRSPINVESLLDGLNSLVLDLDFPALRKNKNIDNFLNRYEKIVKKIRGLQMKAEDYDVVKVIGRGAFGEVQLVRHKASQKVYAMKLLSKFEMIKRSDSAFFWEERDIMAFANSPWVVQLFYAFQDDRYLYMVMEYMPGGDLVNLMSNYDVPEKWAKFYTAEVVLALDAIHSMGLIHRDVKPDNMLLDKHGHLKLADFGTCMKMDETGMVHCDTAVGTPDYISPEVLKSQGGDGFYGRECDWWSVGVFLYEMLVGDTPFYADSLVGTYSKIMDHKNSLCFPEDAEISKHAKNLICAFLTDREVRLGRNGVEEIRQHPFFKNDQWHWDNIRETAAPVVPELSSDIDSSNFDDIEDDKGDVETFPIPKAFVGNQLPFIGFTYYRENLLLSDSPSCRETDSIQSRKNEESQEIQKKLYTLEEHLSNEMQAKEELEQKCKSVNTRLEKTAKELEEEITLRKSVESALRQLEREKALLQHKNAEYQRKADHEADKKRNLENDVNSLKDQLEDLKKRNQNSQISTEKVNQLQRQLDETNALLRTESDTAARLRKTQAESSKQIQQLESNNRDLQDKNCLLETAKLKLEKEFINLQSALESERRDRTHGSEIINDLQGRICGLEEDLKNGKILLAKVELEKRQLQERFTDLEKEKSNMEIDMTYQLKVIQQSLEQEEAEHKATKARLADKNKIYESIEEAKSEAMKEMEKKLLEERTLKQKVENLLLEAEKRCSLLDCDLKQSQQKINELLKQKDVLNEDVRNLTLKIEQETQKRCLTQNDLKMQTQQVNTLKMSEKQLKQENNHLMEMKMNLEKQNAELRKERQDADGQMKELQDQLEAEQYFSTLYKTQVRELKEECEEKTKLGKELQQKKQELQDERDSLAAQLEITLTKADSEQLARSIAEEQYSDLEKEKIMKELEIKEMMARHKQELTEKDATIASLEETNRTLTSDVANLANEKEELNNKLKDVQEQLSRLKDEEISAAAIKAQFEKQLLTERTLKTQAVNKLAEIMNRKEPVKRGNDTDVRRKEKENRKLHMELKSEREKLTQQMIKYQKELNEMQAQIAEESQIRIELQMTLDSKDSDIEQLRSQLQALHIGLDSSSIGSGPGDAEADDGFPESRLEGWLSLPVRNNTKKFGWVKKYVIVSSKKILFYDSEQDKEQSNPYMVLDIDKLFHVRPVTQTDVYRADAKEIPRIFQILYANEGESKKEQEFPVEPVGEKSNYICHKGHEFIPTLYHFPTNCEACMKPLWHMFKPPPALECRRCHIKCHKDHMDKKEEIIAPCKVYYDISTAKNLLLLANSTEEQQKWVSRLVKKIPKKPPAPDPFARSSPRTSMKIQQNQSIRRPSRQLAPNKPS
readout name: IC50

>>> result("O=C(NCCc1ccncc1)c1cccc(CNC(=O)c2ccc3c(c2)OCO3)c1")
"> 7 mM"
>>> result("COc1cccc(C(=O)NCc2cccc(C(=O)Nc3ccc(CN(C)C)cc3)c2)c1")
"> 0.007 mM"
>>> result("COc1ccc(C(=O)Nc2cccc(C(=O)NCCC3CCCNC3)c2)cc1OC (stereo not given)")
"> 6 mM"
>>> result("COc1ccc(S(=O)(=O)NCc2cccc(C(=O)NCCC3CCCNC3)c2)cc1OC (stereo not given)")
"> 6 mM"
>>> result("Cc1ccc(C(=O)NCc2cccc(C(=O)NCCc3ccncc3)c2)cc1C")
"> 7 mM"

###

A collection of compounds and their measured log10 IC50
target of assay: Rho-associated protein kinase 2 (Homo sapiens)
experiment summary: Inhibition of human ROCK2 by IMAP assay
readout name: log10 IC50 (log10 of the value in nM)

>>> numeric_result("COc1ccc(C(=O)NCc2cccc(C(=O)NCCC3CCCNC3)c2)cc1OC (stereo unspecified)")
2.15
>>> numeric_result("N#Cc1ccc(NC(=O)NCc2cccc(C(=O)Nc3ccc(CN)cc3)c2)cc1")
2.32
>>> numeric_result("CN(C)Cc1ccc(NC(=O)c2cccc(CNC(=O)Nc3ccc(C#N)cc3)c2)cc1")
2.20
>>> numeric_result("COc1ccc(C(=O)NCc2cccc(C(=O)Nc3ccc(CN(C)C)cc3)c2)cc1C(F)(F)F")
2.54
>>> numeric_result("COc1ccc(C(=O)NCc2cccc(C(=O)Nc3ccc(CN(C)C)cc3)c2)cc1OC")
2.36
>>> numeric_result("COc1ccc(C(=O)NCc2cccc(C(=O)Nc3ccc4c(c3)CCNC4)c2)cc1OC")
2.51
>>> numeric_result("CN(C)Cc1ccc(NC(=O)c2cccc(CNC(=O)Nc3ccc(C(N)=O)c(Cl)c3)c2)cc1")
2.26
>>> numeric_result("COc1ccc(C(=O)NCc2cccc(C(=O)Nc3ccc(CN(C)C)cc3)c2)cc1C")
2.82
>>> numeric_result("CN(C)Cc1ccc(NC(=O)c2cccc(CNC(=O)c3ccc(OC(F)(F)F)c(Cl)c3)c2)cc1")
3.11
>>> numeric_result("CN(C)Cc1ccc(NC(=O)c2cccc(CNC(=O)Nc3cccc(C(N)=O)c3)c2)cc1")
2.46
>>> numeric_result("CN(C)Cc1ccc(NC(=O)c2cccc(CNC(=O)Nc3ccc(C#N)c(Cl)c3)c2)cc1")
1.65
>>> numeric_result("N#Cc1ccc(NC(=O)NCc2cccc(C(=O)Nc3ccc4c(c3)CNCC4)c2)cc1")
1.68

###

Heads up, these compounds all have IC50 values measured for Rho-associated protein kinase 2 (Homo sapiens, UniProt O75116).
readout name: IC50 (µM)

>>> numeric_result("COc1ccc(CC(=O)Nc2cccc(C(=O)NCCC3CCCNC3)c2)cc1OC (stereo not given)")
3200
>>> numeric_result("COc1ccc(C(=O)NCc2cccc(C(=O)Nc3ccc(CN(C)C)cc3)c2)cc1C(F)(F)F")
160
>>> numeric_result("CN(C)Cc1ccc(NC(=O)c2cccc(CNC(=O)c3ccc(OC(F)(F)F)c(Cl)c3)c2)cc1")
670
>>> numeric_result("COc1ccc(C(=O)NCc2cccc(C(=O)Nc3ccc4c(c3)CCNC4)c2)cc1OC")
100
>>> numeric_result("CN(C)Cc1ccc(NC(=O)c2cccc(CNC(=O)Nc3ccc(C#N)c(Cl)c3)c2)cc1")
10
>>> numeric_result("COc1ccc(C(=O)NCc2cccc(C(=O)NCCC3CCCN(C)C3)c2)cc1OC (stereo not given)")
102
>>> numeric_result("CN(C)Cc1ccc(NC(=O)c2cccc(CNC(=O)Nc3ccc(C(N)=O)c(Cl)c3)c2)cc1")
74
>>> numeric_result("N#Cc1ccc(NC(=O)NCc2cccc(C(=O)Nc3ccc(CN)cc3)c2)cc1")
70
>>> numeric_result("COc1ccc(NC(=O)NCc2cccc(C(=O)NCCC3CCCNC3)c2)cc1OC (stereo not given)")
1600
>>> numeric_result("COc1ccc(C(=O)NCc2cccc(C(=O)Nc3ccc4cnccc4c3)c2)cc1OC")
685
